Source: patent US20200024330A1

Listing of recorded Fold IC50 increase relative to wild-type by entry.
biological target: HIV-1 JR-CSF Env E321aA (HIV-1 isolate JR-CSF) (UniProt P20871); test: cell-based or functional assay
Answer format: numeric, fold implied, no suffix.

Examples from the recorded data:
Binder	Fold IC50 increase relative to wild-type (fold)
PGT-131 (antibody, V domains shown) VH: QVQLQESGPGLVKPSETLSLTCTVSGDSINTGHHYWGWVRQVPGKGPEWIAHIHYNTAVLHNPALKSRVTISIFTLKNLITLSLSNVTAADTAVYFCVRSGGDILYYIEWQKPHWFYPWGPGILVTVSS VL: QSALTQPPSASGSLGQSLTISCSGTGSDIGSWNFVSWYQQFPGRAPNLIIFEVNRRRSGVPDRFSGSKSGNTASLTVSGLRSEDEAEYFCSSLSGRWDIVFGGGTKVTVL	1.8
PGT-130 (antibody, V domains shown) VH: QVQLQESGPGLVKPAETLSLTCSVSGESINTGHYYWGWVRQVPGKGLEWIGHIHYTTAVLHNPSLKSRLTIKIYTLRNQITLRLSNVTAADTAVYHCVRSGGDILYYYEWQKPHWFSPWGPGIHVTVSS VL: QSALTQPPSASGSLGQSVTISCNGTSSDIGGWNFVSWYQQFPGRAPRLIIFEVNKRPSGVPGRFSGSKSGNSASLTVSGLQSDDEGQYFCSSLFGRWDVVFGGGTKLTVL	1.7

Kindly consider the entry below.
GET /values?readout=Fold IC50 increase relative to wild-type&item= PGT-126 (antibody, V domains shown) VH: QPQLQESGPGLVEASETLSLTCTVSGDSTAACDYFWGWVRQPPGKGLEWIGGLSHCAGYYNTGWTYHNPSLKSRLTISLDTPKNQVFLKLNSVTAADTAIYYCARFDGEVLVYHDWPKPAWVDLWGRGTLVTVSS VL: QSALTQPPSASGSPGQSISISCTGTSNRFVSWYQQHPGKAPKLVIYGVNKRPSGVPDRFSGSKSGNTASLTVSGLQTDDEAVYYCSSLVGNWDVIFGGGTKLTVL 0.6
